# Target: Transcription factor Sp1 (Homo sapiens) (UniProt P08047)
# Sequence (P08047 whole entry, looked up): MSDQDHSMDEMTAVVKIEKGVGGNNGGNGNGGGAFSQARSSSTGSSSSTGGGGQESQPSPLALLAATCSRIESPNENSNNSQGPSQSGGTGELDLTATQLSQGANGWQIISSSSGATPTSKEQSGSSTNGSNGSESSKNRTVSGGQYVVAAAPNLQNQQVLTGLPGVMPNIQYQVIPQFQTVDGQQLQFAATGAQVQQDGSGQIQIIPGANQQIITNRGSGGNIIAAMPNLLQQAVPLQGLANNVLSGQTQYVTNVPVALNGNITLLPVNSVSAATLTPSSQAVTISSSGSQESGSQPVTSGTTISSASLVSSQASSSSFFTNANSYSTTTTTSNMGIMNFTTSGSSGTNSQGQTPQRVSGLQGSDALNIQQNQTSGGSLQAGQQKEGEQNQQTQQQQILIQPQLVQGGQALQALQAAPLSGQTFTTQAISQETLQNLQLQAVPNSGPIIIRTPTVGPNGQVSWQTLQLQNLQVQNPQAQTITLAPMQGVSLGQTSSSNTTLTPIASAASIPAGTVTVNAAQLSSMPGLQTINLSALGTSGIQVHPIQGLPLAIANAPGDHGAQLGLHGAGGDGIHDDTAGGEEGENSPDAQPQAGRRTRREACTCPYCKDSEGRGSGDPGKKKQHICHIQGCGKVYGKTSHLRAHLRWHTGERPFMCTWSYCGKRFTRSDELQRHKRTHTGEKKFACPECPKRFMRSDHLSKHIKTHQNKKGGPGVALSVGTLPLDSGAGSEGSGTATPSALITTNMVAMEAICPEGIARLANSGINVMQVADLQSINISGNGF
# Assay remarks: ATG_Sp1_CIS: Attagene CIS-FACTORIAL HepG2 Assay for human Specificity Protein 1 (Sp1) (AID 2282961)
# Experimental context: HepG2 Sp1 cis-reporter transcription, actives raise or lower the signal
# Method: ATG_CIS is a cell-based, multiplexed-readout assay that uses HepG2, a human liver cell line, with measurements taken at 24 hours after chemical dosing in a 24-well plate.ATG_Sp1_CIS is one of 52 assay component(s) measured or calculated from the ATG_CIS assay. […] This assay endpoint, ATG_Sp1_CIS, was analyzed with bidirectional fitting relative to DMSO as the negative control and baseline of activity. […]
The source made the active and inactive calls. Rule for the calls: active = hit-call score of the fitted dose curve at least 0.9, where 1 is the maximum; inactive = score below 0.9.
Choose one outcome from this list and give only that: true = active, false = inactive

Q. Write down the call the test reported for this compound. Item: FC(F)(F)C(F)(F)C(F)(F)C(F)(F)C(F)(F)C(F)(F)CCI
A. false

Q. Write down the call the test reported for this compound. Item: Cc1cc(NC(=O)C(=O)O)cc(C)c1Oc1ccc(O)c2c1CCC2
A. false

Q. Write down the call the test reported for this compound. Item: O=C(N[C@@H](Cc1ccccc1)[C@@H](O)C(=O)N1C[C@@H](O)[C@@H](O)C1)c1cc2cc(Cl)ccc2[nH]1
A. false

Q. Write down the call the test reported for this compound. Item: COc1ccc(S(=O)(=O)N2C(=O)[C@@](c3ccccc3OC)(N3C[C@H](O)C[C@H]3C(=O)N(C)C)c3cc(Cl)ccc32)c(OC)c1
A. false

Q. Write down the call the test reported for this compound. Item: COc1cc(C=O)ccc1O
A. false

Q. Write down the call the test reported for this compound. Item: Nc1nc(N)c2nc(CNc3ccc(C(=O)N[C@@H](CCC(=O)O)C(=O)O)cc3)cnc2n1
A. false

Q. Write down the call the test reported for this compound. Item: CCCCCCC(=O)OCC
A. false

Q. Write down the call the test reported for this compound. Item: CCCCCCOCCO
A. false

Q. Write down the call the test reported for this compound. Item: Clc1cc(Cl)c(Cl)cc1Cl
A. false

Q. Write down the call the test reported for this compound. Item: COc1cc(/C=C/C(=O)CC(=O)/C=C/c2ccc(O)c(OC)c2)ccc1O
A. true

Q. Write down the call the test reported for this compound. Item: Cc1ccc(N(C)C)cc1
A. false

Q. Write down the call the test reported for this compound. Item: Cc1nc(-c2ccc3c(c2)CCN(CCC2CCC(NC(=O)/C=C/c4ccc(F)cc4)CC2)CC3)no1 (configuration not stated)
A. false

Q. Write down the call the test reported for this compound. Item: Cc1nc(C)nc(N2C[C@@H](C)N(c3ccnc([C@@H](C)O)n3)[C@@H](C)C2)n1
A. false

Q. Write down the call the test reported for this compound. Item: c1cc(-c2ccncc2)ccn1
A. false

Q. Write down the call the test reported for this compound. Item: COc1ccc(C)cc1N
A. false

Q. Write down the call the test reported for this compound. Item: CCCCCC(=O)O
A. false

Q. Write down the call the test reported for this compound. Item: CC1(C)CC(N=C=O)CC(C)(CN=C=O)C1 (configuration not stated)
A. false

Q. Write down the call the test reported for this compound. Item: CN1CCN(Cc2cc(-c3ccc4[nH]c(=O)oc4c3)co2)[C@@H](c2ccc(F)cc2)C1
A. false

Q. Write down the call the test reported for this compound. Item: CC(=O)OC/C=C(\C)CCC=C(C)C
A. false

Q. Write down the call the test reported for this compound. Item: Cc1ccccc1Cl
A. false

Q. Write down the call the test reported for this compound. Item: CC1=C(/C=C/C(C)=C/C=C/C(C)=C/CO)C(C)(C)CCC1
A. false

Q. Write down the call the test reported for this compound. Item: C=CCc1ccc(O)c(OC)c1
A. false

Q. Write down the call the test reported for this compound. Item: Cc1cccc(C)c1O
A. false

Q. Write down the call the test reported for this compound. Item: CCCc1cc(=O)[nH]c(=S)[nH]1
A. false

Q. Write down the call the test reported for this compound. Item: Cc1ccc2ncccc2c1
A. false

Q. Write down the call the test reported for this compound. Item: CC=Cc1ccc(O)c(OC)c1
A. false

Q. Write down the call the test reported for this compound. Item: Cc1cccc(Nc2cc(Cl)nc(SCC(=O)O)n2)c1C
A. false

----------
# Assay remarks: TOX21_p53_BLA_p2_viability: Viability Assessment in the Tox21 HCT-116 p53 Agonism Beta-lactamase Assay, Phase 2 (AID 2283591);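 note: compound exposure lasted 16 h at 37 °C; actives lower the ATP signal meaning cytotoxicity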
Records with an inconclusive call do not appear. Activity calls are given as the source filed them. Rule for the calls: active = hit-call score of the fitted dose curve at least 0.9, where 1 is the maximum; inconclusive = response in the unintended direction; inactive = score below 0.9.
Choose one outcome from this list and give only that: label 1 = active, label 0 = inactive

Q. Write down the call the test reported for this molecule. Item: CC(=O)C(C)=CC1C(C)=CCCC1(C)C (stereo unspecified)
A. label 0

Q. Write down the call the test reported for this molecule. Item: Oc1ccc2ccccc2c1N=Nc1ccccc1
A. label 0

Q. Write down the call the test reported for this molecule. Item: C[C@]12C=CC(=O)C=C1CC[C@@H]1[C@@H]2C(=O)C[C@@]2(C)[C@H]1CC[C@]2(O)C(=O)CO
A. label 0

Q. Write down the call the test reported for this molecule. Item: Nc1ccc(S(=O)(=O)c2ccc(N)cc2)cc1
A. label 0

Q. Write down the call the test reported for this molecule. Item: C[Si]1(C)O[Si](C)(C)O[Si](C)(C)O[Si](C)(C)O1
A. label 0

Q. Write down the call the test reported for this molecule. Item: Cc1nc(-c2ccc3c(c2)CCN(CCC2CCC(NC(=O)/C=C/c4ccc(F)cc4)CC2)CC3)no1 (stereo unspecified)
A. label 0

Q. Write down the call the test reported for this molecule. Item: O=C(O)Cc1ccccc1Nc1c(Cl)cccc1Cl
A. label 0

Q. Write down the call the test reported for this molecule. Item: NS(=O)(=O)c1cc2c(cc1Cl)NCNS2(=O)=O
A. label 0

Q. Write down the call the test reported for this molecule. Item: O=c1c(O)c(-c2ccc(O)c(O)c2)oc2cc(O)cc(O)c12
A. label 0

Q. Write down the call the test reported for this molecule. Item: CN[C@H]1CC[C@@H](c2ccc(Cl)c(Cl)c2)c2ccc(S(N)(=O)=O)cc21
A. label 1

Q. Write down the call the test reported for this molecule. Item: CCCCC(CC)COC(=O)CC(C(=O)OCC(CC)CCCC)S(=O)(=O)O (stereo unspecified)
A. label 1

Q. Write down the call the test reported for this molecule. Item: C1CCC(SSC2CCCCC2)CC1
A. label 0

Q. Write down the call the test reported for this molecule. Item: CCOC(=O)C(C)(C)Oc1ccc(Cl)cc1
A. label 0

Q. Write down the call the test reported for this molecule. Item: CCCCCCCCCCCC(=O)OC
A. label 0

Q. Write down the call the test reported for this molecule. Item: COc1ccc2c(c1)c(CC(=O)O)c(C)n2C(=O)c1ccc(Cl)cc1
A. label 0

Q. Write down the call the test reported for this molecule. Item: Cc1ccc(Cl)cc1
A. label 0

Q. Write down the call the test reported for this molecule. Item: O=C(N[C@@H](Cc1ccccc1)[C@@H](O)C(=O)N1C[C@@H](O)[C@@H](O)C1)c1cc2cc(Cl)ccc2[nH]1
A. label 0

Q. Write down the call the test reported for this molecule. Item: CCCc1cc(=O)[nH]c(=S)[nH]1
A. label 0

Q. Write down the call the test reported for this molecule. Item: COCCOCCOC
A. label 0

Q. Write down the call the test reported for this molecule. Item: c1cc(-c2ccncc2)ccn1
A. label 0

Q. Write down the call the test reported for this molecule. Item: CC(=O)OCCOCCOCCOC(C)=O
A. label 0

Q. Write down the call the test reported for this molecule. Item: O=[N+]([O-])C(CO)(CO)CO
A. label 0

Q. Write down the call the test reported for this molecule. Item: CCOc1ccc2c(c1)C(C)=CC(C)(C)N2
A. label 0

Q. Write down the call the test reported for this molecule. Item: COc1cc(-c2nc(NC(=O)c3cc4cc(C)cc(C)c4n3CC(=O)O)sc2CCC2CCCCC2)c(OC)cc1Cl
A. label 1

Q. Write down the call the test reported for this molecule. Item: CCCCCC(=O)O
A. label 0

Q. Write down the call the test reported for this molecule. Item: CCCCCCCCCCO
A. label 0

----------
# Assay remarks: ATG_Ets_CIS: Attagene CIS-FACTORIAL HepG2 Assay for human Erythroblast Transformation Specific (ETS) (AID 2282941)
# Experimental context: HepG2 ETS cis-reporter transcription, actives raise or lower the signal
# Experimental: ATG_CIS is a cell-based, multiplexed-readout assay that uses HepG2, a human liver cell line, with measurements taken at 24 hours after chemical dosing in a 24-well plate.ATG_Ets_CIS is one of 52 assay component(s) measured or calculated from the ATG_CIS assay. […] This assay endpoint, ATG_Ets_CIS, was analyzed with bidirectional fitting relative to DMSO as the negative control and baseline of activity. […]
Active and inactive are the calls of the source. The calls were made as follows: active = hit-call score of the fitted dose curve at least 0.9, where 1 is the maximum; inactive = score below 0.9.
Choose one outcome from this list and give only that: class 1 for active, class 0 for inactive

Q. Write down the call the test reported for this compound. Item: CCCCCC(=O)O
A. class 0

Q. Write down the call the test reported for this compound. Item: FC(F)(F)C(F)(F)C(F)(F)C(F)(F)C(F)(F)C(F)(F)CCI
A. class 0

Q. Write down the call the test reported for this compound. Item: Cc1ccc(C(C)C)c(O)c1
A. class 0

Q. Write down the call the test reported for this compound. Item: Cc1ccc(C)c(O)c1C
A. class 0

Q. Write down the call the test reported for this compound. Item: COc1cc(-c2nc(NC(=O)c3cc4cc(C)cc(C)c4n3CC(=O)O)sc2CCC2CCCCC2)c(OC)cc1Cl
A. class 1

Q. Write down the call the test reported for this compound. Item: COc1cccc2c1C(=O)c1c(O)c3c(c(O)c1C2=O)C[C@@](O)(C(=O)CO)C[C@@H]3O[C@H]1C[C@H](N)[C@H](O)[C@H](C)O1
A. class 0

Q. Write down the call the test reported for this compound. Item: COc1ccc2c(c1)c(CC(=O)O)c(C)n2C(=O)c1ccc(Cl)cc1
A. class 0

Q. Write down the call the test reported for this compound. Item: CN1CCN(Cc2cc(-c3ccc4[nH]c(=O)oc4c3)co2)[C@@H](c2ccc(F)cc2)C1
A. class 0

Q. Write down the call the test reported for this compound. Item: CC(CO)OC(C)CO (stereo unspecified) (tested in a mixture with another compound)
A. class 0

Q. Write down the call the test reported for this compound. Item: Cc1cccc(C)c1O
A. class 0

Q. Write down the call the test reported for this compound. Item: CCCCCCCCCCCCCCCC
A. class 0

// provenance: PubChem BioAssay (EPA / NIEHS)
